Where do these numbers come from? They come from ChEMBL document CHEMBL1201862.

# Test system: SK-MEL-2
# ASSAY_OVERVIEW: NCI tumour cell line growth inhibition, 48 h
Active and inactive are the calls of the source. Cut-off read from the data, not from the text of the source: active = GI50 up to about 1.1 µM and inactive = higher.
OBSERVED_PROPERTY: GI50

Take a look at these entries with their results.
| COMPOUND | OBSERVED_PROPERTY | RESULT |
| --- | --- | --- |
| O=C(CCN1CCCC1)Nc1ccc2sc3ccccc3c(=O)c2n1 | GI50 | 13.3 µM (inactive) |
| C=C(C=O)c1c2c(nc3ccccc13)C(=O)c1ccccc1C2=O | GI50 | 1.37 µM (inactive) |
| CCCCC1Cc2ccccc2-c2n1c1ccccc1[n+]2C (stereo not given) | GI50 | 8.53 µM (inactive) |
| CC[C@H](O)[C@H](C)C=C1SCCCS1 | GI50 | > 100 µM (inactive) |

Here's the next entry for you.
Identify the measured GI50 of CCCCCC[C@H]([C@H](C)O)n1cnc2c(N)ncnc21 for SK-MEL-2.
> 100 µM (inactive)
